test system: biotinyl-Leu-oxazolone; experiment: self-aminoacylation, catalytic enhancement (BLO) (fold over background); higher = more active; k-Seq, kA / k0A0; sequences stand for … in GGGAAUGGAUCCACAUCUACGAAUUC…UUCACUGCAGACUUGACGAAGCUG
This sample holds only a part of the variants without activity.
Quick rule: self-aminoacylation of at least 1 means Fulfilled, below that means Not fulfilled.

Ordered Residues: AAGUAUGCUAUUAGUCGCAAG [Fam3.1 aminoacylation ribozyme variant]
Assay System: biotinyl-Leu-oxazolone
Qualitative Label: Fulfilled

Ordered Residues: CGUCUUCAAACAAUCGGUCUG [Fam1A.1 aminoacylation ribozyme variant]
Assay System: biotinyl-Leu-oxazolone
Qualitative Label: Fulfilled

Ordered Residues: AAGUUUGCUAAUUGUCGCAGG [Fam3.1 aminoacylation ribozyme variant]
Assay System: biotinyl-Leu-oxazolone
Qualitative Label: Fulfilled

Ordered Residues: AAGUUUACUAAUACUCGCAAG [Fam3.1 aminoacylation ribozyme variant]
Assay System: biotinyl-Leu-oxazolone
Qualitative Label: Fulfilled

Ordered Residues: AUUUACCUAGGUCAUCUGGUG [Fam2.2 aminoacylation ribozyme variant]
Assay System: biotinyl-Leu-oxazolone
Qualitative Label: Fulfilled

Ordered Residues: AAGUUUGCUCAUAGUAGCAAG [Fam3.1 aminoacylation ribozyme variant]
Assay System: biotinyl-Leu-oxazolone
Qualitative Label: Not fulfilled

Ordered Residues: AUUGACCUAGGUCAUCCGGUG [Fam2.2 aminoacylation ribozyme variant]
Assay System: biotinyl-Leu-oxazolone
Qualitative Label: Fulfilled

Ordered Residues: GUUCACCUAGGUCAUCGGGUU [Fam2.2 aminoacylation ribozyme variant]
Assay System: biotinyl-Leu-oxazolone
Qualitative Label: Fulfilled

Ordered Residues: AUUCACCUAGGUCACCGAGUG [Fam2.2 aminoacylation ribozyme variant]
Assay System: biotinyl-Leu-oxazolone
Qualitative Label: Fulfilled

Ordered Residues: AUUGCCCUGGUAAUCGAGUGA [Fam2.1 aminoacylation ribozyme variant]
Assay System: biotinyl-Leu-oxazolone
Qualitative Label: Fulfilled

Ordered Residues: CAGUUUGCUAGUAGUCGCAAG [Fam3.1 aminoacylation ribozyme variant]
Assay System: biotinyl-Leu-oxazolone
Qualitative Label: Fulfilled

Ordered Residues: CUACUUUUAACAAUCGGUCUG [Fam1A.1 aminoacylation ribozyme variant]
Assay System: biotinyl-Leu-oxazolone
Qualitative Label: Not fulfilled

Ordered Residues: CCACACUUGAAGGAAUCGGUC [Fam1B.1 aminoacylation ribozyme variant]
Assay System: biotinyl-Leu-oxazolone
Qualitative Label: Fulfilled

Ordered Residues: GUUACCCGGGUCAUCGAGUGA [Fam2.1 aminoacylation ribozyme variant]
Assay System: biotinyl-Leu-oxazolone
Qualitative Label: Fulfilled

Ordered Residues: AUUUACCUUGGUCAUCGGGUG [Fam2.2 aminoacylation ribozyme variant]
Assay System: biotinyl-Leu-oxazolone
Qualitative Label: Fulfilled

Ordered Residues: AAGUUUGCUAAUAGUCGCUAU [Fam3.1 aminoacylation ribozyme variant]
Assay System: biotinyl-Leu-oxazolone
Qualitative Label: Fulfilled

Ordered Residues: AUUACCUUGCUCAUCGAGUGA [Fam2.1 aminoacylation ribozyme variant]
Assay System: biotinyl-Leu-oxazolone
Qualitative Label: Fulfilled

Ordered Residues: CCACACUUGAAGCAAUCGAUC [Fam1B.1 aminoacylation ribozyme variant]
Assay System: biotinyl-Leu-oxazolone
Qualitative Label: Not fulfilled

###

test system: biotinyl-Met-oxazolone; assay: self-aminoacylation, catalytic enhancement (BMO) (fold over background); higher = more active; k-Seq, kA / k0A0; sequences stand for … in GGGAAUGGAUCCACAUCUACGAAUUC…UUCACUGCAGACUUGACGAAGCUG
Variants at the floor of the assay were thinned out.
Quick rule: self-aminoacylation of at least 4 means satisfied, below that means not satisfied.

Ordered Residues: ACUCACCUAGGUCGUCGGGUG [Fam2.2 aminoacylation ribozyme variant]
Qualitative Label: not satisfied
--
Ordered Residues: AGUACCCUGGUCAUAGAGUGA [Fam2.1 aminoacylation ribozyme variant]
Qualitative Label: satisfied
--
Ordered Residues: AGUAACCUGGUCAUCGAGUGA [Fam2.1 aminoacylation ribozyme variant]
Qualitative Label: satisfied
--
Ordered Residues: AUUCACCUACGUCAGCGGGUG [Fam2.2 aminoacylation ribozyme variant]
Qualitative Label: satisfied
--
Ordered Residues: CUUCACCUAGGUCAUGGGGUG [Fam2.2 aminoacylation ribozyme variant]
Qualitative Label: not satisfied

###

system: biotinyl-Ile-oxazolone; assay: self-aminoacylation, catalytic enhancement (BIO) (fold over background); higher = more active; k-Seq, kA / k0A0; sequences stand for … in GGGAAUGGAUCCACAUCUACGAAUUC…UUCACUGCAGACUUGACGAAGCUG
Variants at the floor of the assay were thinned out.
As shown below, each of these sequences has a reported self-aminoacylation value.

Ordered Residues: AUUCCCCUGGUCGUCGAGUGA [Fam2.1 aminoacylation ribozyme variant]
self-aminoacylation: 1.48

Ordered Residues: AUUCAGCUGGGUCAUCGGGUG [Fam2.2 aminoacylation ribozyme variant]
self-aminoacylation: 3.79

Ordered Residues: AUUACCCUGGUCAUCGAGGAA [Fam2.1 aminoacylation ribozyme variant]
self-aminoacylation: 2.3

Ordered Residues: CUACUUCAAAAAAUCCGUCUG [Fam1A.1 aminoacylation ribozyme variant]
self-aminoacylation: 0.834

Ordered Residues: AUUCACUUAGGUCAUCGUGUG [Fam2.2 aminoacylation ribozyme variant]
self-aminoacylation: 0.779

Ordered Residues: ACGUUUGCUAAUUGUCGCAAG [Fam3.1 aminoacylation ribozyme variant]
self-aminoacylation: 1.6

Ordered Residues: UUUACCCUGGUCAUCGAGUGG [Fam2.1 aminoacylation ribozyme variant]
self-aminoacylation: 8.85

Ordered Residues: AAGUUUGCUAAUUCUCGCAAG [Fam3.1 aminoacylation ribozyme variant]
self-aminoacylation: 1.26

Ordered Residues: CCGUACUUCAAGCAAUCGGUC [Fam1B.1 aminoacylation ribozyme variant]
self-aminoacylation: 1.16

Ordered Residues: AUUAACCUGCUCAUCGAGUGA [Fam2.1 aminoacylation ribozyme variant]
self-aminoacylation: 1.55

Ordered Residues: AUUCACCUGGGUCAGCGGGUG [Fam2.2 aminoacylation ribozyme variant]
self-aminoacylation: 4.33

Ordered Residues: AUCCACCUAGGUCAUCGGAUG [Fam2.2 aminoacylation ribozyme variant]
self-aminoacylation: 1.4

Ordered Residues: CUACUUCAAACAAUAGGGCUG [Fam1A.1 aminoacylation ribozyme variant]
self-aminoacylation: 0.844

Ordered Residues: AUUACCCUGGUCAUCGAGGUA [Fam2.1 aminoacylation ribozyme variant]
self-aminoacylation: 2.38

Ordered Residues: AAGUGUGCUAUUAGUCGCAAG [Fam3.1 aminoacylation ribozyme variant]
self-aminoacylation: 1.29

Ordered Residues: CUACUUCAAUCGAUCGGUCUG [Fam1A.1 aminoacylation ribozyme variant]
self-aminoacylation: 0.687

Ordered Residues: AUUACGCUGGUCAUCGAGUGG [Fam2.1 aminoacylation ribozyme variant]
self-aminoacylation: 1.46

Ordered Residues: AUUCACCUACCUCAUCGGGUG [Fam2.2 aminoacylation ribozyme variant]
self-aminoacylation: 2.21

###

system: biotinyl-Ile-oxazolone; assay: self-aminoacylation, catalytic enhancement (BIO) (fold over background); higher = more active; k-Seq, kA / k0A0; sequences stand for … in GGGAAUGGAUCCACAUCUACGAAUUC…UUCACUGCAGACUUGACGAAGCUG
Fewer inactive variants are shown than the library holds.
Measured Metric: self-aminoacylation

Ordered Residues: CUGCUUCAAACAAUCGGUAUG [Fam1A.1 aminoacylation ribozyme variant]
Assay System: biotinyl-Ile-oxazolone
Readout Value: 1.29
--
Ordered Residues: CCACACUUGAAGCGAUCGGUC [Fam1B.1 aminoacylation ribozyme variant]
Assay System: biotinyl-Ile-oxazolone
Readout Value: 1.41
--
Ordered Residues: CCACACUUCAAGCAACCGGUG [Fam1B.1 aminoacylation ribozyme variant]
Assay System: biotinyl-Ile-oxazolone
Readout Value: 3.92
--
Ordered Residues: CUAUUUCAUACAAUCGGUCUG [Fam1A.1 aminoacylation ribozyme variant]
Assay System: biotinyl-Ile-oxazolone
Readout Value: 0.911
--
Ordered Residues: AUUCACCUUGGUGAUCGGGUG [Fam2.2 aminoacylation ribozyme variant]
Assay System: biotinyl-Ile-oxazolone
Readout Value: 3.1
--
Ordered Residues: AUUACCCUGGUCACCGCGUGA [Fam2.1 aminoacylation ribozyme variant]
Assay System: biotinyl-Ile-oxazolone
Readout Value: 6.07
--
Ordered Residues: AAGUUUGCUUAUAGUCGCCAG [Fam3.1 aminoacylation ribozyme variant]
Assay System: biotinyl-Ile-oxazolone
Readout Value: 1.08
--
Ordered Residues: GUUCACCUUGGUCAUCGGGUG [Fam2.2 aminoacylation ribozyme variant]
Assay System: biotinyl-Ile-oxazolone
Readout Value: 3.45

###

tested on: biotinyl-Trp-oxazolone; test: self-aminoacylation, catalytic enhancement (BWO) (fold over background); higher = more active; k-Seq, kA / k0A0; sequences stand for … in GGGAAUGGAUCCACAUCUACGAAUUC…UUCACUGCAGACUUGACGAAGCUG
Fewer inactive variants are shown than the library holds.
Quick rule: self-aminoacylation of at least 3 means Y, below that means N.

Ordered Residues: AUUCACCUAGGACAUCGGGAG [Fam2.2 aminoacylation ribozyme variant]
Qualitative Label: N
--
Ordered Residues: UUACUUCAAACAAUCGGUCCG [Fam1A.1 aminoacylation ribozyme variant]
Qualitative Label: N
--
Ordered Residues: AAGUAUGCUAAUAGCCGCAAG [Fam3.1 aminoacylation ribozyme variant]
Qualitative Label: N
--
Ordered Residues: AAGAUUGCUAAUAGGCGCAAG [Fam3.1 aminoacylation ribozyme variant]
Qualitative Label: N
--
Ordered Residues: AGUACCCUGGUCAUCGAGUGU [Fam2.1 aminoacylation ribozyme variant]
Qualitative Label: Y
--
Ordered Residues: AUUACCCUGGUCAUCGAGCGG [Fam2.1 aminoacylation ribozyme variant]
Qualitative Label: N
--
Ordered Residues: AGUACCCUGCUCAUCGAGUGA [Fam2.1 aminoacylation ribozyme variant]
Qualitative Label: N
--
Ordered Residues: CCACAGUUCAAGCAAUAGGUC [Fam1B.1 aminoacylation ribozyme variant]
Qualitative Label: N
--
Ordered Residues: AUUACCCUGGUCAUCGGGAGA [Fam2.1 aminoacylation ribozyme variant]
Qualitative Label: Y
--
Ordered Residues: ACGUGUGCUAAUAGUCGCAAG [Fam3.1 aminoacylation ribozyme variant]
Qualitative Label: N
--
Ordered Residues: AUUACUCUGGUCAUCGGGUGA [Fam2.1 aminoacylation ribozyme variant]
Qualitative Label: Y
--
Ordered Residues: AUUGACCUAGGUCAUCCGGUG [Fam2.2 aminoacylation ribozyme variant]
Qualitative Label: Y
--
Ordered Residues: CCACACUUCAAGUAAUCGUUC [Fam1B.1 aminoacylation ribozyme variant]
Qualitative Label: N
--
Ordered Residues: CUACUUCAAACAAUCGCUAUG [Fam1A.1 aminoacylation ribozyme variant]
Qualitative Label: N
--
Ordered Residues: GAGUUUGCUAAUAGUCGCGAG [Fam3.1 aminoacylation ribozyme variant]
Qualitative Label: N
--
Ordered Residues: CUACUUCAAACAAUCGCGCUG [Fam1A.1 aminoacylation ribozyme variant]
Qualitative Label: N
--
Ordered Residues: ACUCCCCUAGGUCAUCGGGUG [Fam2.2 aminoacylation ribozyme variant]
Qualitative Label: Y
